# credit: the supplement of paper PMC7125110

B1: glmS ribozyme (parent)
chain: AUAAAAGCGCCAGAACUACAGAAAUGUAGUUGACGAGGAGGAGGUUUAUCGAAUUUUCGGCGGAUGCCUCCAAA

# Variants of: B1
# test_method_notes: self-cleavage kobs at 2500 uM GlcN6P; higher = faster cleavage; RNA array
# settings: with glucosamine-6-phosphate
Fewer inactive variants are shown than the library holds.
assay_endpoint: self-cleavage kobs at 2500 uM GlcN6P

Please review the entries below; each comes with its answer.
C8U U65G
< 1e-05 s⁻¹
U56A C67U
0.00474 s⁻¹
C16A C67U
0.000286 s⁻¹
C8G A36C
< 1e-05 s⁻¹
G29A G35U A53U
< 1e-05 s⁻¹

Qu. So what's the measured self-cleavage kobs at 2500 uM GlcN6P for this one? A14C C34A C67U
Ans. < 1e-05 s⁻¹

Qu. Suppose we examine the variant A12G U47A ; what self-cleavage kobs at 2500 uM GlcN6P value has been reported?
Ans. 0.000455 s⁻¹

Qu. Report self-cleavage kobs at 2500 uM GlcN6P for U49G A53U U56A C67A C70A please.
Ans. 0.000146 s⁻¹

Qu. What self-cleavage kobs at 2500 uM GlcN6P value was documented for this variant, G32C G38A C50G ?
Ans. 8.89e-05 s⁻¹

Qu. Return reported self-cleavage kobs at 2500 uM GlcN6P; argument: A6G C71G
Ans. < 1e-05 s⁻¹

Qu. Return reported self-cleavage kobs at 2500 uM GlcN6P; argument: A15G C50U
Ans. 4.52e-05 s⁻¹

Qu. I have this variant here, A48U C67U C70U , and I need its recorded self-cleavage kobs at 2500 uM GlcN6P.
Ans. < 1e-05 s⁻¹

Qu. Given C16A G32A C34A , state its recorded self-cleavage kobs at 2500 uM GlcN6P.
Ans. < 1e-05 s⁻¹

Qu. Suppose we examine the variant A12U A14U A33C C50U ; what self-cleavage kobs at 2500 uM GlcN6P value has been reported?
Ans. < 1e-05 s⁻¹

Qu. Which self-cleavage kobs at 2500 uM GlcN6P is listed for C11A G38C G40U G59A ?
Ans. < 1e-05 s⁻¹

Qu. Look up self-cleavage kobs at 2500 uM GlcN6P: G38U G44C U56C U57G C70U
Ans. < 1e-05 s⁻¹

Qu. // returns reported self-cleavage kobs at 2500 uM GlcN6P for input G41C A48U A52C A53U
Ans. < 1e-05 s⁻¹
